# MEASURED TARGET: type 3 HPIV envelope glycoproteins mediated fusion (Human parainfluenza 3 virus, UniProt P06828)
# Sequence (P06828 19-109): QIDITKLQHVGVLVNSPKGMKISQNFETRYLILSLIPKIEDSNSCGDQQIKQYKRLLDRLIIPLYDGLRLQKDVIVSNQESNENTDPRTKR
# Sequence (P06828 110-539): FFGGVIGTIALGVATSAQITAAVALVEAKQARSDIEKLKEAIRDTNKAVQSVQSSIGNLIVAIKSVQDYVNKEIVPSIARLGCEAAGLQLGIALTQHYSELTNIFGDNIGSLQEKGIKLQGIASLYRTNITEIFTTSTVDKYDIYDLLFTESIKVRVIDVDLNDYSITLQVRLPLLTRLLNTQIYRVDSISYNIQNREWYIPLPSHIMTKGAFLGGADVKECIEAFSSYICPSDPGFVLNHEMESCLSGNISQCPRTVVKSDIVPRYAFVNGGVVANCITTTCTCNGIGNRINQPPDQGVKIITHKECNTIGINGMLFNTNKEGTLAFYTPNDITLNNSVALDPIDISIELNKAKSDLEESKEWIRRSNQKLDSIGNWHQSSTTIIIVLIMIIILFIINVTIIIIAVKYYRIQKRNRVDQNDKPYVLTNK
# PROCEDURE TEXT: cell-based
# Assay type: cell-based, human parainfluenza virus type 3 (HPIV3)
Numbered stars: 1 amine (or outer) side, 2 acyl side, 3 side chain; on linkers, the order of the positions; unused ones are H or OH. Bridge positions count the residues as written; N and C are the ends. I, II: the chains in the order shown. * marks the point of attachment. X1 = CC(C)CCC[C@@H](C)[C@H]1CC[C@H]2[C@@H]3CC=C4C[C@@H](OCCN(CCNC(=O)CCOCCOCCOCCOCCNC(=O)CCCN5C(=O)CC([*:1])C5=O)CCNC(=O)CCOCCOCCOCCOCCNC(=O)CCCN5C(=O)CC([*:2])C5=O)CC[C@]4(C)[C@H]3CC[C@]12C; Cam = NC(=O)C*
Known IC50 of a selection of substances
ENDPOINT LABEL: IC50

[[record]]
substance = "I: Ac-VALDPIDISIVLNKAKSDLEESKEWIRRSNGKLDSIGSGSGC-NH2 / II: Ac-VALDPIDISIVLNKAKSDLEESKEWIRRSNGKLDSIGSGSGC-NH2 (linker I:42-II:42 via X1) [HPIV-P4]"
endpoint_label = "IC50"
result = "< 10 nM"

[[record]]
substance = "Ac-VALDPIDISIVLNKAKSDLEESKEWIRRSNGKLDSIGSGSGC(Cam)-NH2 [HPIV-P2]"
endpoint_label = "IC50"
result = "> 100 nM"


---

Known pIC50 of a selection of substances
# MEASURED TARGET: Nipah virus envelope glycoproteins mediated fusion (Nipah virus, UniProt Q9IH63)
# Sequence (Q9IH63 110-546 limits assumed): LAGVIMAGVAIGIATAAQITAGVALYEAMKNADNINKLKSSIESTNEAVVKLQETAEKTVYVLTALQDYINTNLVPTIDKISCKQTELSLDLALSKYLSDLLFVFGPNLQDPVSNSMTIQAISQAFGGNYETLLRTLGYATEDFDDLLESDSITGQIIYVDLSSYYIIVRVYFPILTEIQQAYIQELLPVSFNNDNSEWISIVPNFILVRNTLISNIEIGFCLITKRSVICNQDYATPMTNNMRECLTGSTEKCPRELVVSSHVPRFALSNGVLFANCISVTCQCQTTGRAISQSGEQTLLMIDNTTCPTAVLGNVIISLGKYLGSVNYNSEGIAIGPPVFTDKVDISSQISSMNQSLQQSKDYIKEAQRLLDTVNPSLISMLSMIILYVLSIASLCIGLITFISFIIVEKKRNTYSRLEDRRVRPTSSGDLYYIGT
# Sequence (Q9IH63 27-109 partner limits assumed): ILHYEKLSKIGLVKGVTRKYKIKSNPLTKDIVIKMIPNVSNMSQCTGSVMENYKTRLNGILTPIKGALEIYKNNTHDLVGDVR
# PROCEDURE TEXT: cell-based
# Assay type: cell-based
pIC50: −log10 of the molar value. Numbered stars: 1 amine (or outer) side, 2 acyl side, 3 side chain; on linkers, the order of the positions; unused ones are H or OH. Bridge positions count the residues as written; N and C are the ends. I, II: the chains in the order shown. * marks the point of attachment. X1 = CC(C)CCC[C@@H](C)[C@H]1CC[C@H]2[C@@H]3CC=C4C[C@@H](OCCN(CCNC(=O)CCOCCOCCOCCOCCNC(=O)CCCN5C(=O)CC([*:1])C5=O)CCNC(=O)CCOCCOCCOCCOCCNC(=O)CCCN5C(=O)CC([*:2])C5=O)CC[C@]4(C)[C@H]3CC[C@]12C; Cam = NC(=O)C*
ENDPOINT LABEL: pIC50

[[record]]
substance = "I: Ac-VALDPIDISIVLNKAKSDLEESKEWIRRSNGKLDSIGSGSGC-NH2 / II: Ac-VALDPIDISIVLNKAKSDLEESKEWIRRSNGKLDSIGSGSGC-NH2 (linker I:42-II:42 via X1) [HPIV-P4]"
endpoint_label = "pIC50"
result = "> 9.00"

[[record]]
substance = "Ac-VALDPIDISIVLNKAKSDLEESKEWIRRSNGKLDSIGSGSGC(Cam)-NH2 [HPIV-P2]"
endpoint_label = "pIC50"
result = "< 7.00"


---

# MEASURED TARGET: Nipah virus envelope glycoproteins mediated fusion (Nipah virus, UniProt Q9IH63)
# PROCEDURE TEXT: cell-based
# Format: cell-based
# CONDITION DETAILS: read-out: IC50, inhibition of NiV envelope glycoprotein mediated cell-to-cell fusion
ENDPOINT LABEL: IC50

[[record]]
substance = "Ac-VALDPIDISIVLNKAKSDLEESKEWIRRSNGKLDSI-GSGSG-C(PEG4-Chol)-NH2 [HPIV-P3]"
result = "1 to 10 nM"


---

# MEASURED TARGET: type 3 HPIV envelope glycoproteins mediated fusion (Human parainfluenza 3 virus, UniProt P06828)
# PROCEDURE TEXT: cell-based
# Assay type: cell-based, human parainfluenza virus type 3 (HPIV3)
# CONDITION DETAILS: read-out: IC50, inhibition of HPIV3 envelope glycoprotein mediated cell-to-cell fusion
ENDPOINT LABEL: IC50

[[record]]
substance = "Ac-VALDPIDISIVLNKAKSDLEESKEWIRRSNGKLDSI-GSGSG-C(PEG4-Chol)-NH2 [HPIV-P3]"
endpoint_label = "IC50"
result = "10 to 100 nM"


// data source = paper PMC3353973
